- System: Klebsiella pneumoniae NCTC 9632
- Experiment description: MIC by serial dilution method on agar plate
- Assay type: cell-based
- Protocol conditions: 1 × 10^8 cells/ml
Recorded endpoint: minimum inhibitory concentration (MIC)
Would you mind answering with just the numeric figure?

Below, 2 compounds whose answers are already recorded.
{"Compound": "O=C(O)c1cn(-c2ccc(F)cc2)c2cc(N3CCNCC3)c(F)cc2c1=O [B]", "minimum inhibitory concentration (MIC)": 0.097}
{"Compound": "CN1CCN(c2cc3c(cc2F)c(=O)c(C(=O)O)cn3-c2ccc(F)cc2)CC1 [A]", "minimum inhibitory concentration (MIC)": 0.195}

Attention now shifts to the item below.
Entry CN1CCN(c2cc3c(cc2F)c(=O)c(C(=O)O)cn3-c2ccc(O)cc2)CC1 [C] ; minimum inhibitory concentration (MIC) = 0.097

====

- Experiment description: Absorption by oral administration in monkey (plasma concentration, thin layer cup bio-assay);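 note: plasma concentration in γ/ml (µg/mL) rather than the printed ng/mL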
- Type: in vivo
- Protocol conditions: 10 mg/kg, Run 1, 0.5 hour, read-out: Amount of test compd. in plasma
Recorded endpoint: concentration at 0.5 h

Just so you know, measured concentration at 0.5 h for CN1CCN(c2c(F)cc3c(=O)c(C(=O)O)cn(-c4ccc(O)cc4)c3c2F)CC1 came out at 2350 ng/mL

====

- Experiment description: Absorption by oral administration in monkey (plasma concentration, thin layer cup bio-assay);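 note: plasma concentration in γ/ml (µg/mL) rather than the printed ng/mL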
- Assay type: in vivo
- Protocol conditions: 10 mg/kg, Run 2, 7 hour, read-out: Amount of test compd. in plasma
Recorded endpoint: concentration at 7 h

Per the records, this molecule ( CN1CCN(c2c(F)cc3c(=O)c(C(=O)O)cn(-c4ccc(O)cc4)c3c2F)CC1 ) has concentration at 7 h equal to < 200 ng/mL

====

- Test system: Acinetobacter calcoaceticus AC-54
- Experiment description: MIC by serial dilution method on agar plate
- Type: cell-based
- Protocol conditions: 1 × 10^8 cells/ml
minimum inhibitory concentration (MIC) reference
In your answer, state the number alone without any accompanying words.

Some entries whose results are on file:
{"Compound": "CN1CCN(c2c(F)cc3c(=O)c(C(=O)O)cn(-c4ccc(O)cc4)c3c2F)CC1 [Test Compd. No. 1]", "minimum inhibitory concentration (MIC)": 0.097}
{"Compound": "CN1CCN(c2cc3c(cc2F)c(=O)c(C(=O)O)cn3-c2ccc(O)cc2)CC1 [C]", "minimum inhibitory concentration (MIC)": 0.39}
{"Compound": "O=C(O)c1cn(-c2ccc(F)cc2)c2cc(N3CCNCC3)c(F)cc2c1=O [B]", "minimum inhibitory concentration (MIC)": 0.39}

We next turn to a different compound, shown below.
Value of minimum inhibitory concentration (MIC) reported for the compound CN1CCN(c2cc3c(cc2F)c(=O)c(C(=O)O)cn3-c2ccc(F)cc2)CC1 [A] is 0.39

====

- Experiment description: Absorption by oral administration in monkey (plasma concentration, thin layer cup bio-assay);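 note: plasma concentration in γ/ml (µg/mL) rather than the printed ng/mL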
- Type: in vivo
- Protocol conditions: 100 mg/kg, average of two runs, 1 hour, read-out: Amount of test compd. in plasma, Average
Recorded endpoint: concentration at 1 h

Entry under test: CN1CCN(c2cc3c(cc2F)c(=O)c(C(=O)O)cn3-c2ccc(O)cc2)CC1 . Its concentration at 1 h was < 350 ng/mL

====

- Experiment description: Absorption by oral administration in monkey (plasma concentration, thin layer cup bio-assay);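 note: plasma concentration in γ/ml (µg/mL) rather than the printed ng/mL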
- Format: in vivo
- Protocol conditions: 100 mg/kg, Run 2, 1 hour, read-out: Amount of test compd. in plasma
Recorded endpoint: concentration at 1 h

concentration at 1 h reading for CN1CCN(c2cc3c(cc2F)c(=O)c(C(=O)O)cn3-c2ccc(O)cc2)CC1 : < 390 ng/mL

====

- Tested on: Pseudomonas aeruginosa E-2
- Experiment description: MIC by serial dilution method on agar plate
- Format: cell-based
- Protocol conditions: 1 × 10^6 cells/ml
Recorded endpoint: minimum inhibitory concentration (MIC)
// no unit, no text: just the number

{"Compound": "CN1CCN(c2cc3c(cc2F)c(=O)c(C(=O)O)cn3-c2ccc(O)cc2)CC1 [C]", "Readout value": 0.39}
{"Compound": "CN1CCN(c2c(F)cc3c(=O)c(C(=O)O)cn(-c4ccc(O)cc4)c3c2F)CC1 [Test Compd. No. 1]", "Readout value": 0.097}
{"Compound": "CN1CCN(c2cc3c(cc2F)c(=O)c(C(=O)O)cn3-c2ccc(F)cc2)CC1 [A]", "Readout value": 3.12}

Notebook: O=C(O)c1cn(-c2ccc(F)cc2)c2cc(N3CCNCC3)c(F)cc2c1=O [B] , minimum inhibitory concentration (MIC) read as 0.78

====

- Experiment description: Absorption by oral administration in monkey (plasma concentration, thin layer cup bio-assay);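 note: plasma concentration in γ/ml (µg/mL) rather than the printed ng/mL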
- Type: in vivo
- Protocol conditions: 10 mg/kg, Run 1, 2 hour, read-out: Amount of test compd. in plasma
Recorded endpoint: concentration at 2 h
Could you write the number and then its unit?

Memo: CN1CCN(c2c(F)cc3c(=O)c(C(=O)O)cn(-c4ccc(O)cc4)c3c2F)CC1 [Test Compd. No. 1] , reported concentration at 2 h: 1940 ng/mL

====

- Experiment description: Absorption by oral administration in monkey (plasma concentration, thin layer cup bio-assay);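 note: plasma concentration in γ/ml (µg/mL) rather than the printed ng/mL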
- Assay type: in vivo
- Protocol conditions: 10 mg/kg, Run 2, 24 hour, read-out: Amount of test compd. in plasma
Recorded endpoint: concentration at 24 h

The molecule identified as CN1CCN(c2c(F)cc3c(=O)c(C(=O)O)cn(-c4ccc(O)cc4)c3c2F)CC1 registered its concentration at 24 h at < 200 ng/mL

====

- System: Staphylococcus pyrogens IID S-23
- Experiment description: MIC by serial dilution method on agar plate
- Type: cell-based
- Protocol conditions: 1 × 10^8 cells/ml
Recorded endpoint: minimum inhibitory concentration (MIC)

Observe how each entry below is paired with its result.
{"Compound": "CN1CCN(c2c(F)cc3c(=O)c(C(=O)O)cn(-c4ccc(O)cc4)c3c2F)CC1 [Test Compd. No. 1]", "Target entity": "Staphylococcus pyrogens IID S-23", "minimum inhibitory concentration (MIC)": 0.781}
{"Compound": "O=C(O)c1cn(-c2ccc(F)cc2)c2cc(N3CCNCC3)c(F)cc2c1=O [B]", "Target entity": "Staphylococcus pyrogens IID S-23", "minimum inhibitory concentration (MIC)": 6.25}
{"Compound": "CN1CCN(c2cc3c(cc2F)c(=O)c(C(=O)O)cn3-c2ccc(F)cc2)CC1 [A]", "Target entity": "Staphylococcus pyrogens IID S-23", "minimum inhibitory concentration (MIC)": 6.25}

Proceeding to the next compound to report its minimum inhibitory concentration (MIC).
minimum inhibitory concentration (MIC) reading for CN1CCN(c2cc3c(cc2F)c(=O)c(C(=O)O)cn3-c2ccc(O)cc2)CC1 [C] : 1.56

====

- Test system: Pseudomonas aeruginosa E-2
- Experiment description: MIC by serial dilution method on agar plate
- Type: cell-based
- Protocol conditions: 1 × 10^8 cells/ml
Recorded endpoint: minimum inhibitory concentration (MIC)
The answer should be written as a number, with no unit following it.

So the reported minimum inhibitory concentration (MIC) for CN1CCN(c2c(F)cc3c(=O)c(C(=O)O)cn(-c4ccc(O)cc4)c3c2F)CC1 [Test Compd. No. 1] , on Pseudomonas aeruginosa E-2, turned out to be 0.195

====

- Experiment description: Absorption by oral administration in monkey (plasma concentration, thin layer cup bio-assay);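 note: plasma concentration in γ/ml (µg/mL) rather than the printed ng/mL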
- Type: in vivo
- Protocol conditions: 10 mg/kg, average of two runs, 1 hour, read-out: Amount of test compd. in plasma, Average
Recorded endpoint: concentration at 1 h
Give me the value, and tack the unit on after it.

Looking up CN1CCN(c2c(F)cc3c(=O)c(C(=O)O)cn(-c4ccc(O)cc4)c3c2F)CC1 , I see its concentration at 1 h listed as 3220 ng/mL

====

- Experiment description: Absorption by oral administration in monkey (plasma concentration, thin layer cup bio-assay);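 note: plasma concentration in γ/ml (µg/mL) rather than the printed ng/mL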
- Format: in vivo
- Protocol conditions: 10 mg/kg, Run 1, 24 hour, read-out: Amount of test compd. in plasma
Recorded endpoint: concentration at 24 h

Per the record, CN1CCN(c2c(F)cc3c(=O)c(C(=O)O)cn(-c4ccc(O)cc4)c3c2F)CC1 has concentration at 24 h of < 200 ng/mL

====

- Experiment description: Absorption by oral administration in monkey (plasma concentration, thin layer cup bio-assay);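 note: plasma concentration in γ/ml (µg/mL) rather than the printed ng/mL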
- Format: in vivo
- Protocol conditions: 10 mg/kg, average of two runs, 24 hour, read-out: Amount of test compd. in plasma, Average
Recorded endpoint: concentration at 24 h

Record CN1CCN(c2c(F)cc3c(=O)c(C(=O)O)cn(-c4ccc(O)cc4)c3c2F)CC1 . Reported concentration at 24 h: < 390 ng/mL

====

- Experiment description: Absorption by oral administration in monkey (plasma concentration, thin layer cup bio-assay);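 note: plasma concentration in γ/ml (µg/mL) rather than the printed ng/mL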
- Assay type: in vivo
- Protocol conditions: 100 mg/kg, Run 1, 24 hour, read-out: Amount of test compd. in plasma
Recorded endpoint: concentration at 24 h (ng/mL)
Respond with the bare value in ng/mL.

The molecule identified as CN1CCN(c2cc3c(cc2F)c(=O)c(C(=O)O)cn3-c2ccc(O)cc2)CC1 registered its concentration at 24 h at 900
